Sourced from ChEMBL document CHEMBL4145449

target: Cystic fibrosis transmembrane conductance regulator (Homo sapiens, UniProt P13569, F508DEL); experiment: Corrector activity at human CFTR F508-del mutant expressed in rat […] cells harboring YFP-H148Q/I152L preincubated for 18 to 24 hrs followed by forskolin/genistein addition by HTS assay; format: cell-based
Sequence (P13569 as listed by the source): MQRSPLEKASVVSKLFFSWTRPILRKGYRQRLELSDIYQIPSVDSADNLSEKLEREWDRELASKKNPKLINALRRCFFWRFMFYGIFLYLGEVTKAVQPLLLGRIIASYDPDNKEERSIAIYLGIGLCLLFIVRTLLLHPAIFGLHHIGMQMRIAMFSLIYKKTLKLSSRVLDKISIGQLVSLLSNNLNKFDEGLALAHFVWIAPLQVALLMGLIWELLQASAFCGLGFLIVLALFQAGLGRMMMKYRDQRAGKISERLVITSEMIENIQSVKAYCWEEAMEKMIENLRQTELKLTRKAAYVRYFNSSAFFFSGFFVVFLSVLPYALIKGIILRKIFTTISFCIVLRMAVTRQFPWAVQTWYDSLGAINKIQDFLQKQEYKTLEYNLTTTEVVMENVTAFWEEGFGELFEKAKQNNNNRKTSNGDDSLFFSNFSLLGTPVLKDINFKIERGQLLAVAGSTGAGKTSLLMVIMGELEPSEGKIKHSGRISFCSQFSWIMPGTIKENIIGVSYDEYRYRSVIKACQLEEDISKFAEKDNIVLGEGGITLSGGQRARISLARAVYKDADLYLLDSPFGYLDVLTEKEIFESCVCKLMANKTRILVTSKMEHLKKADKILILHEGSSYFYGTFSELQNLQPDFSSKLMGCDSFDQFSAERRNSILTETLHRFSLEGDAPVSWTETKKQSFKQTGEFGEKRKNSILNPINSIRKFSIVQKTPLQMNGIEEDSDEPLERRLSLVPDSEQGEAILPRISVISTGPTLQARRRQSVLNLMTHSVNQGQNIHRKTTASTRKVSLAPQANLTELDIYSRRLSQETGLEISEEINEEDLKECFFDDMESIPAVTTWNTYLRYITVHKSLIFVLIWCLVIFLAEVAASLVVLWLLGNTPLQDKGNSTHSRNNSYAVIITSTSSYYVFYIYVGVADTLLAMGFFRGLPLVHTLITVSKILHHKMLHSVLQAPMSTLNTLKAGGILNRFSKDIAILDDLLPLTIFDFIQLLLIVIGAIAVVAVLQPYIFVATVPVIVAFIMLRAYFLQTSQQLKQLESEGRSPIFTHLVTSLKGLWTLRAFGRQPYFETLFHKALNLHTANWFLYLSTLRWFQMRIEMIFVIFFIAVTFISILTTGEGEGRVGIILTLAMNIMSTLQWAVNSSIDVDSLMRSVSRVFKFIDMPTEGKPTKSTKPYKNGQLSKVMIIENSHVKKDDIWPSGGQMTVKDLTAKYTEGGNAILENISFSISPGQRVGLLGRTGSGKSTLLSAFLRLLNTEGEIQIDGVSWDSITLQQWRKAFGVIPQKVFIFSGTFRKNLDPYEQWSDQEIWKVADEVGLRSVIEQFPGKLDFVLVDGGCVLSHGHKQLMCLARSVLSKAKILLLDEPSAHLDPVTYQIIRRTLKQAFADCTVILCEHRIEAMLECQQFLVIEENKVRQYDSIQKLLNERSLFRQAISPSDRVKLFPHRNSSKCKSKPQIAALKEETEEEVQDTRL
pEC50: −log10 of the molar value.
experimentalReadout: pEC50

Task item: What value of pEC50 has been recorded for this entry: "COc1ccc(Cl)cc1Nc1nc(-c2sc(NC(=O)c3ccccc3)nc2C)cs1"
Reply: > 5.52

====

target: Cystic fibrosis transmembrane conductance regulator (Homo sapiens, UniProt P13569, F508DEL); assay: Corrector activity at CFTR F508-del mutant (unknown origin) expressed in human CFBE41o cells harboring HS-YFP preincubated for 24 hrs followed by forskolin/genistein stimulation for 30 mins by fluorescence assay; type: cell-based; conditions: read-out: pEC50 (converted)
experimentalReadout: EC50 (µM)
Answers are plain numbers, in µM.

In the examples that follow, each entry is paired with its recorded EC50.
{"itemSmiles": "Fc1ccc(CN2CCc3nc(-c4ccccn4)nc(NCCCN4CCCC4)c3C2)cc1", "EC50 (µM)": 0.2}
{"itemSmiles": "COc1ccc(Cl)cc1Cc1cc(-c2sc(NC(=O)C(C)(C)C)nc2C)nn1C(=O)NCCO", "EC50 (µM)": 3.02}
{"itemSmiles": "COc1cccc(C(=O)N2CCN(c3nc4cc(C)cc(C)c4cc3C#N)CC2)c1", "EC50 (µM)": 100}
{"itemSmiles": "Cc1cc(C)c2cc(C#N)c(N3CCN(C(=O)c4cccnc4)CC3)nc2c1", "EC50 (µM)": 100}
{"itemSmiles": "CN(C)CCN1CCN(c2nc(-c3ccccn3)nc3c2CN(Cc2ccc(F)cc2)CC3)CC1", "EC50 (µM)": 100}

Provide EC50 for all items below, preserving their order.
1. Cc1cc(C)c2cc(C#N)c(N3CCN(C(=O)c4ccccn4)CC3)nc2c1
2. CC(=O)NCCCNc1nc(-c2ccccn2)nc2c1CN(Cc1ccc(F)cc1)CC2

Reply:
100
0.2

Provide EC50 for all items below, preserving their order.
1. Cc1nc(NC(=O)C(C)(C)C)sc1-c1cc(Cc2ccccc2)n(C(=O)NCc2ccccc2)n1
2. Cc1cc(C)c2cc(C#N)c(N3CCN(C(=O)c4ccncc4)CC3)nc2c1
3. CCOC(=O)n1nc(-c2sc(NC(=O)C(C)(C)C)nc2C)cc1Cc1ccccc1
4. Cc1cc(C)c2cc(C#N)c(NCCCNC(=O)c3ccccn3)nc2c1
5. CN(C)CCN1CCN(c2nc(-c3ccccn3)nc3c2CN(C(=O)c2ccccc2)CC3)CC1

Reply:
[0.759, 100, 8.51, 100, 100]

Provide EC50 for all items below, preserving their order.
1. CN(C)CCN1CCN(c2nc(-c3ccncc3)nc3c2CN(Cc2ccccc2)CC3)CC1
2. COc1ccc(Cl)cc1Cc1cc(-c2sc(NC(=O)C(C)(C)C)nc2C)nn1C(=O)N1CCOCC1
3. C=CCc1cc(-c2sc(NC(=O)C(C)(C)C)nc2C)nn1C(=O)Nc1ccccc1
4. COc1ccccc1C(=O)N1CCN(c2nc3cc(C)cc(C)c3cc2C#N)CC1

Reply:
[100, 1, 3.02, 100]

====

Hi there, I'd appreciate the recorded EC50 for every entry that follows.
target: Cystic fibrosis transmembrane conductance regulator (Homo sapiens, UniProt P13569, F508DEL); assay: Corrector activity at CFTR F508-del mutant (unknown origin) expressed in human CFBE41o cells harboring HS-YFP preincubated for 24 hrs followed by forskolin/genistein stimulation for 30 mins by fluorescence assay; type: cell-based; conditions: read-out: pEC50 (converted)
Answers are plain numbers, in µM.

{"compound": "Cc1cc(C)c2cc(C#N)c(NCCCNC(=O)c3ccncc3)nc2c1", "unitString": "µM", "EC50": 13.2}
{"compound": "CCN(C(C)=O)C1CCN(c2nc(-c3ccccn3)nc3c2CN(Cc2ccc(Cl)cc2)CC3)C1 (stereo unspecified)", "unitString": "µM", "EC50": 100}
{"compound": "COc1ccc(NC(=O)c2cc(-c3sc(NC(=O)C(C)(C)C)nc3C)n(-c3ccc(Br)cc3)n2)cc1", "unitString": "µM", "EC50": 3.39}

Here is another compound to look at.
Task item: What value of EC50 has been recorded for this entry: "CN(C)CCN1CCN(c2nc(-c3ccccn3)nc3c2CN(S(=O)(=O)c2ccccc2)CC3)CC1"
Reply: 100

====

biological target: Cystic fibrosis transmembrane conductance regulator (Homo sapiens, UniProt P13569, F508DEL); experiment: Corrector activity at CFTR F508-del mutant (unknown origin) expressed in human CFBE41o cells harboring HS-YFP preincubated for 24 hrs followed by forskolin/genistein stimulation for 30 mins by fluorescence assay; assay type: cell-based; conditions: read-out: EC50
pEC50: −log10 of the molar value.
Rule: pEC50 of 6 or more gives met; anything lower gives not met.

{"itemSmiles": "CC(=O)Nc1ccc(-c2csc(NC(=O)C3(c4ccc5c(c4)OCO5)CC3)n2)cc1", "labelValue": "not met"}

Task item: pEC50 >= 6 for "O=C(Nc1cccc2cccnc12)C1(c2ccc3c(c2)OCO3)CC1" ?
Reply: not met

Task item: Same for "O=C(Nc1nc(-c2cccc(Cl)c2)cs1)C1(c2ccc3c(c2)OCO3)CC1"
Reply: not met

Task item: Same for "Cc1sc(NC(=O)C2(c3ccc4c(c3)OCO4)CC2)nc1-c1ccc(C(=O)O)cc1"
Reply: not met

Task item: Same for "Cc1sc(NC(=O)C2(c3ccc4c(c3)OCO4)CC2)nc1-c1ccccc1"
Reply: not met

Task item: Same for "O=C(c1ccccc1)c1sc(NC(=O)C2(c3ccc4c(c3)OCO4)CC2)nc1-c1ccccc1"
Reply: met

====

biological target: Cystic fibrosis transmembrane conductance regulator (Homo sapiens, UniProt P13569, F508DEL); test: Corrector activity at CFTR F508-del mutant (unknown origin) expressed in human CFBE41o cells harboring HS-YFP preincubated for 24 hrs followed by forskolin/genistein stimulation for 30 mins by fluorescence assay; format: cell-based; settings: read-out: EC50
We label by threshold. Values of EC50 strictly beneath 1 µM are y. Values of 1 µM and up are n.

Consider the following illustrative entries.
{"itemSmiles": "Cc1sc(NC(=O)C2(c3ccc4c(c3)OCO4)CC2)nc1-c1cccc(O)c1", "labelValue": "n"}
{"itemSmiles": "O=C(Nc1nc(-c2cccc(O)c2)cs1)C1(c2ccc3c(c2)OC(F)(F)O3)CC1", "labelValue": "n"}

Task item: Strictly below 1 µM: is that where EC50 of "Cc1sc(NC(=O)C2(c3ccc4c(c3)OCO4)CC2)nc1-c1ccc(F)cc1" sits?
Reply: y

Task item: Same for "CCOC(=O)c1sc(NC(=O)C2(c3ccc4c(c3)OCO4)CC2)nc1-c1ccc(Br)cc1"
Reply: y

Task item: Same for "Cc1sc(NC(=O)C2(c3ccc4c(c3)OCO4)CC2)nc1-c1ccc(Br)cc1"
Reply: n

====

target: Cystic fibrosis transmembrane conductance regulator (Homo sapiens, UniProt P13569, F508DEL); assay: Corrector activity at CFTR F508-del mutant (unknown origin) expressed in human CFBE41o cells harboring HS-YFP preincubated for 24 hrs followed by forskolin/genistein stimulation for 30 mins by fluorescence assay; type: cell-based; conditions: read-out: EC50
experimentalReadout: EC50 (µM)
Numbers only, in µM.

{"itemSmiles": "O=C(Nc1nc(-c2cccc(O)c2)cs1)C1(c2ccc3c(c2)OCO3)CC1", "unitString": "µM", "EC50": 2.3}

Task item: What value of EC50 has been recorded for this entry: "O=C(Nc1nc(-c2ccc(Cl)cc2)cs1)C1(c2ccc3c(c2)OCO3)CC1"
Reply: 2.9
